# test: melting temperature; fluorescence melt of hairpins on a sequencing array, two-state fit, raised by 9.35 °C to match UV melts
# testConditions: sodium 0.088 M
A collection of sequences and their measured Tm
resultType: Tm

monomersequence="GCTCGGCGAAAGCCCTGC ((..(((....)))..))" resulttype=Tm result="53.4 °C"
monomersequence="GATCAGTCTCTGATC ((((((...))))))" resulttype=Tm result="50.7 °C"
monomersequence="GTCCACGGAAACATGGAC (((((.(....).)))))" resulttype=Tm result="43.2 °C"
monomersequence="GAGCAGAAATGCTC (((((....)))))" resulttype=Tm result="53.6 °C"
monomersequence="GATCTGGGGCCAGATC ((((((....))))))" resulttype=Tm result="50.5 °C"
monomersequence="GTCGCTCCGAAAGGAGAC (((..(((....))))))" resulttype=Tm result="34.9 °C"
monomersequence="GGCCACCGAAAGGTTGCC (((.(((....))).)))" resulttype=Tm result="58.1 °C"
monomersequence="GTACCCGAAAGGGCGTAC ((((((....)))..)))" resulttype=Tm result="34.2 °C"
monomersequence="GAAAGACGAAAGTCTTC (((.(((....))))))" resulttype=Tm result="44.3 °C"
monomersequence="GCACAGCGAAAGCAGTGC ((((.((....)).))))" resulttype=Tm result="69.2 °C"
monomersequence="GGCAGCGGAAACACTGCC (((((.(....).)))))" resulttype=Tm result="55.1 °C"
monomersequence="GGGTTCCGAAAGGATCCC (((.(((....))).)))" resulttype=Tm result="55.9 °C"
monomersequence="GGGATCGAAAGATAACCC ((((((....)))..)))" resulttype=Tm result="34.9 °C"
monomersequence="GGGCTTGGAAACAGGCTC (.((.((....)).)).)" resulttype=Tm result="38.3 °C"
monomersequence="GTTCACGAAAGTGAAAAC ((((((....)))..)))" resulttype=Tm result="40.5 °C"
monomersequence="GTATGAGGAAACTCATGC (.(((((....))))).)" resulttype=Tm result="44.5 °C"
monomersequence="GGTACCGAAAGGTCACC ((((((....))).)))" resulttype=Tm result="46.8 °C"
monomersequence="CTACAGAAATGTAG (((((....)))))" resulttype=Tm result="36.5 °C"
monomersequence="GATGCGCGAAAGCGGATC (((.(((....))).)))" resulttype=Tm result="64.5 °C"
monomersequence="GTGCGGGGAAACCTGCAC ((((.((....)).))))" resulttype=Tm result="58.7 °C"
monomersequence="GAGCATGGAAACATGCCC (.(((((....))))).)" resulttype=Tm result="44 °C"
monomersequence="GCATCGCGAAAGCGAAGC ((.((((....)))).))" resulttype=Tm result="61.3 °C"
monomersequence="GCTTTGGGAAACTAAAGC (((((.(....).)))))" resulttype=Tm result="44.3 °C"
monomersequence="GATCACAACGTGATC ((((((...))))))" resulttype=Tm result="61.3 °C"
monomersequence="GTGCACGAAAGTGCTCAC ((((((....)))..)))" resulttype=Tm result="43.3 °C"

Data provenance: the array DNA melting data of Ke et al. (doi:10.1101/2024.01.08.574731)
